Molecular target: FLJ39196 clone-derived protein (human neurocalcin δ) (Homo sapiens, UniProt P61601)
Construct: A human full-length cDNA clone was expressed as a protein with an N-terminal His tag; His tag (N); made in house; host or cells: Escherichia coli BL21star(DE3)pLysS (pDEST17 Gateway expression plasmid)
Assay: SEC/MS interaction analysis (size exclusion spin column and mass analysis) with FLJ39196 clone-derived protein
Type: binding
Settings: protein 0 μM (protein-free reference), compound 250 μM
Counter-ions that a name gives are not always drawn.
Give spectral intensity of the compound in the SEC spin column filtrate (protein fraction) for every item shown.
Give bare numbers.

CN(C)CC/C=C1/c2ccccc2Sc2ccc(Cl)cc21 : 80321853

For every listed record, write down its spectral intensity of the compound in the SEC spin column filtrate (protein fraction).
1. CC(C)[C@@]1(NC(=O)[C@@H]2C[C@@H]3c4cccc5[nH]cc(c45)C[C@H]3N(C)C2)O[C@@]2(O)[C@@H]3CCCN3C(=O)[C@H](Cc3ccccc3)N2C1=O [Dihydroergocristine]
2. CC(C)COCC(CN(Cc1ccccc1)c1ccccc1)N1CCCC1 (centres unmarked)
3. CN1CCN(CCCN2c3ccccc3Sc3ccc(C(F)(F)F)cc32)CC1
4. CCCCCCCCNC(C)C(O)c1ccc(SC(C)C)cc1 (centres unmarked)

Result ::
137535150
1566782176
632906281
9177432

For every listed record, write down its spectral intensity of the compound in the SEC spin column filtrate (protein fraction).
1. C[C@]12Cc3c[nH]nc3C[C@@H]1CC[C@@H]1[C@@H]2CC[C@@]2(C)[C@H]1CC[C@]2(C)O
2. CCOC(=O)Oc1c(OC)cc(C(=O)O[C@@H]2C[C@@H]3CN4CCc5c([nH]c6cc(OC)ccc56)[C@H]4C[C@@H]3[C@H](C(=O)OC)[C@H]2OC)cc1OC
3. CC(NCCC(c1ccccc1)c1ccccc1)c1ccccc1 (centres unmarked)

Result ::
[4150230, 38512184, 315067466]

For every listed record, write down its spectral intensity of the compound in the SEC spin column filtrate (protein fraction).
1. OCCN1CCN(CC/C=C2/c3ccccc3Sc3ccc(C(F)(F)F)cc32)CC1 [Flupentixol cis-(Z)]
2. Clc1ccc(C(OCCN2CCCCC2)c2ccccc2)cc1 (centres unmarked)
3. Cc1cc(-c2ccccc2)nnc1NCCN1CCOCC1
4. O=C(c1ccc(OCCN2CCCCC2)cc1)c1c(-c2ccc(O)cc2)sc2cc(O)ccc12 [Raloxifene hydrochloride]
5. CCc1oc2ccccc2c1C(=O)c1cc(Br)c(O)c(Br)c1
6. O=C1CN=C(c2ccccc2)c2cc(Cl)ccc2N1CC1CC1
7. c1ccc(-c2ccc(C(c3ccccc3)n3ccnc3)cc2)cc1 (centres unmarked)

Result ::
1: 1019443291; 2: 803023959; 3: 1025547751; 4: 10553153; 5: 461737; 6: 139016191; 7: 32278650

For every listed record, write down its spectral intensity of the compound in the SEC spin column filtrate (protein fraction).
1. CN1CCC(=C2c3ccccc3Sc3ccccc32)CC1
2. COC(=O)[C@H]1[C@H]2C[C@@H]3c4[nH]c5cc(OC)ccc5c4CCN3C[C@H]2C[C@@H](OC(=O)/C=C/c2cc(OC)c(OC)c(OC)c2)[C@@H]1OC

Result ::
[224525009, 7315419]
